test system: K562; experiment: Cytotoxicity against human K562 cells assessed as cell viability at 10 uM after 24 hrs by MTT assay; format: functional; settings: K562, 24 h, read-out: Activity
result.type: viability at 10 µM (%)
Give your result in % as a bare value.

According to the records, this compound `CC[C@H](/C=C/[C@@H](C)[C@H]1CC[C@H]2[C@@H]3CC=C4C[C@@H](O)CC[C@]4(C)[C@H]3[C@H](O)C[C@]12C)C(C)C` displays viability at 10 µM of 43

According to the records, this compound `C/C=C1\C(=O)C[C@H]2[C@@H]3CCC4=CC(=O)CC[C@]4(C)[C@H]3CC[C@]12C` displays viability at 10 µM of 84

According to the records, this compound `CC[C@H](/C=C/[C@@H](C)[C@H]1CC[C@H]2[C@H]3[C@H]([C@H](O)C[C@]12C)[C@@]1(C)CC[C@H](O)CC1=C[C@H]3O)C(C)C` displays viability at 10 µM of 32

According to the records, this compound `CC[C@H](/C=C/[C@@H](C)[C@H]1CC[C@H]2[C@@H]3CC=C4C[C@@H](O)CC[C@]4(C)[C@H]3CC[C@]12C)C(C)C` displays viability at 10 µM of 43

----------
test system: PC-3; experiment: Cytotoxicity against human PC3 cells assessed as cell viability at 10 uM after 24 hrs by MTT assay; type: functional; details: PC-3, 24 h, read-out: Activity
result.type: viability at 10 µM (%)
Give your result in % as a bare value.

According to the records, this molecule `CC[C@H](/C=C/[C@@H](C)[C@H]1CC[C@H]2[C@H]3[C@H]([C@H](O)C[C@]12C)[C@@]1(C)CC[C@H](O)CC1=C[C@H]3O)C(C)C` displays viability at 10 µM of 40

According to the records, this molecule `CC[C@H](/C=C/[C@@H](C)[C@H]1CC[C@H]2[C@@H]3CC=C4C[C@@H](O)CC[C@]4(C)[C@H]3[C@H](O)C[C@]12C)C(C)C` displays viability at 10 µM of 94.5

According to the records, this molecule CC[C@H](/C=C/[C@@H](C)[C@H]1CC[C@H]2[C@@H]3CC=C4C[C@@H](O)CC[C@]4(C)[C@H]3CC[C@]12C)C(C)C [STIGMASTEROL] displays viability at 10 µM of 60

According to the records, this molecule C/C=C1\C(=O)C[C@H]2[C@@H]3CCC4=CC(=O)CC[C@]4(C)[C@H]3CC[C@]12C [GUGGULSTERONE] displays viability at 10 µM of 80
